Origin of values: BigSolDB 2.1

settings: in ethanol, 288.15 K
attribute_measured: solubility (mole fraction)
Keep the answer to the number alone.

(Q) Recorded solubility (mole fraction) for `Cc1cc(Cl)ccc1OCC(=O)O` , please?
(A) 0.184

----------
settings: in acetone, 313.15 K
attribute_measured: solubility (mole fraction)
Keep the answer to the number alone.

(Q) Recorded solubility (mole fraction) for `Cc1cc(Cl)ccc1OCC(=O)O` , please?
(A) 0.281
